System: Abutilon theophrasti (ABUTH), velvetleaf
assay_overview: Postemergence herbicide evaluation, growth of Abutilon theophrasti (ABUTH)
Format: in vivo
condition_set: Abutilon theophrasti, post-emergence, 336 h, 280 g ae/ha, 14 DAA, percent reduction in plant size relative to untreated control; read-out: AVE. ABUTH
assay_readout: pest or weed control at 280 g/ha (%)
Unit % implied. Number only.

Query string: For O=C(COc1ccc(Cl)cc1Cl)ONC(=O)c1ccc(C(=O)NOC(=O)COc2ccc(Cl)cc2Cl)cc1 [Compound B4] , what is its reported pest or weed control at 280 g/ha?
Result string: 78

Query string: // repeat for O=C(COc1ccc(Cl)cc1Cl)NOc1ccccc1 [Compound D7] and report
Result string: 68

Query string: // repeat for O=C(COc1ccc(Cl)cc1Cl)ON1C(=O)c2ccccc2C1=O [Compound A15] and report
Result string: 83

Query string: // repeat for CN(NC(=O)COc1ccc(Cl)cc1Cl)C(=O)c1ccccc1 [Compound D9] and report
Result string: 45
